subject.of.test: T1, huNav1.7α + β1-β2-β3 (human Nav1.7α co-expressed with human Navβ1, Navβ2 and Navβ3 on cells) (human)
T1 construct: also called huNav1.7-beta1-beta2-beta3; CHO FlpIn huNav1.7α + β1-β2-β3
assay.details: binding FACS, CHO FlpIn cells
reported.endpoint: Bmax

- binder: "F010301840 (VHH, also called F0103387G04(R76_V78insT)(L11V, A12V, K33R, R39Q, S50Y, S56D, T83R, V89L, N93R)) VHH: EVQLVESGGGVVQPGGSLRLSCAASGPVFNINRMAWYRQAPGKQRELVAYVTPTGDISYTDSVKGRFTISRDGSKRTWSLQMNSLRPEDTALYYCRALLQPDSYSNTRTYWGQGTLVTVSS"
  measured: "100%"
- binder: "F010302384 (VHH, also called F0103387G04(L11V, A12V, K33R, R39Q, S50Y, S56D, T60A, D72G, W78V, S79Y, T83R, V89L, N93R, D99S, N100cI)) VHH: EVQLVESGGGVVQPGGSLRLSCAASGPVFNINRMAWYRQAPGKQRELVAYVTPTGDISYADSVKGRFTISRGGSKRVYLQMNSLRPEDTALYYCRALLQPSSYSITRTYWGQGTLVTVSS"
  measured: "100%"
- binder: "F010301842 (VHH, also called F0103387G04(L11V, A12V, K33R, R39Q, S50Y, S56D, T60A, T83R, V89L, N93R)) VHH: EVQLVESGGGVVQPGGSLRLSCAASGPVFNINRMAWYRQAPGKQRELVAYVTPTGDISYADSVKGRFTISRDGSKRWSLQMNSLRPEDTALYYCRALLQPDSYSNTRTYWGQGTLVTVSS"
  measured: "100%"
- binder: "F010301846 (VHH, also called F0103387G04(L11V, A12V, K33R, R39Q, S50Y, S56D, S79Y, T83R, V89L, N93R)) VHH: EVQLVESGGGVVQPGGSLRLSCAASGPVFNINRMAWYRQAPGKQRELVAYVTPTGDISYTDSVKGRFTISRDGSKRWYLQMNSLRPEDTALYYCRALLQPDSYSNTRTYWGQGTLVTVSS"
  measured: "100%"
- binder: "F010302312 (VHH, also called F0103387G04(L11V, A12V, K33R, R39Q, S50Y, S56D, T60A, W78V, S79Y, T83R, V89L, N93R, N100cI)) VHH: EVQLVESGGGVVQPGGSLRLSCAASGPVFNINRMAWYRQAPGKQRELVAYVTPTGDISYADSVKGRFTISRDGSKRVYLQMNSLRPEDTALYYCRALLQPDSYSITRTYWGQGTLVTVSS"
  measured: "100%"
- binder: "F010302371 (VHH, also called F0103387G04(L11V, A12V, K33R, R39Q, S50Y, S56D, T60A, G73R, W78V, S79Y, T83R, V89L, N93R, D99N, S100V, N100cI)) VHH: EVQLVESGGGVVQPGGSLRLSCAASGPVFNINRMAWYRQAPGKQRELVAYVTPTGDISYADSVKGRFTISRDRSKRVYLQMNSLRPEDTALYYCRALLQPNVYSITRTYWGQGTLVTVSS"
  measured: "100%"
- binder: "F010302330 (VHH, also called F0103387G04(L11V, A12V, K33R, R39Q, S50Y, S56D, T60A, G73A, W78V, S79Y, T83R, V89L, N93R, S100R)) VHH: EVQLVESGGGVVQPGGSLRLSCAASGPVFNINRMAWYRQAPGKQRELVAYVTPTGDISYADSVKGRFTISRDASKRVYLQMNSLRPEDTALYYCRALLQPDRYSNTRTYWGQGTLVTVSS"
  measured: "93%"
- binder: "F010302385 (VHH, also called F0103387G04(L11V, A12V, K33R, R39Q, S50Y, S56D, T60A, D72Q, W78V, S79Y, T83R, V89L, N93R, D99S, N100cG)) VHH: EVQLVESGGGVVQPGGSLRLSCAASGPVFNINRMAWYRQAPGKQRELVAYVTPTGDISYADSVKGRFTISRQGSKRVYLQMNSLRPEDTALYYCRALLQPSSYSGTRTYWGQGTLVTVSS"
  measured: "100%"
- binder: "F010302316 (VHH, also called F0103387G04(L11V, A12V, K33R, R39Q, S50Y, S56D, T60A, G73A, W78V, S79Y, T83R, V89L, N93R, D99R, N100cI)-FLAG3-HIS6) VHH: EVQLVESGGGVVQPGGSLRLSCAASGPVFNINRMAWYRQAPGKQRELVAYVTPTGDISYADSVKGRFTISRDASKRVYLQMNSLRPEDTALYYCRALLQPRSYSITRTYWGQGTLVTVSS"
  measured: "91%"
- binder: "F010302315 (VHH, also called F0103387G04(L11V, A12V, K33R, R39Q, S50Y, S56D, T60A, W78V, S79Y, T83R, V89L, N93R, D99R, N100cI)) VHH: EVQLVESGGGVVQPGGSLRLSCAASGPVFNINRMAWYRQAPGKQRELVAYVTPTGDISYADSVKGRFTISRDGSKRVYLQMNSLRPEDTALYYCRALLQPRSYSITRTYWGQGTLVTVSS"
  measured: "100%"
- binder: "F010302324 (VHH, also called F0103387G04(L11V, A12V, K33R, R39Q, S50Y, S56D, T60A, G73R, W78V, S79Y, T83R, V89L, N93R, D99R, S100R, N100cI)) VHH: EVQLVESGGGVVQPGGSLRLSCAASGPVFNINRMAWYRQAPGKQRELVAYVTPTGDISYADSVKGRFTISRDRSKRVYLQMNSLRPEDTALYYCRALLQPRRYSITRTYWGQGTLVTVSS"
  measured: "42%"
- binder: "F010301845 (VHH, also called F0103387G04(L11V, A12V, K33R, R39Q, S50Y, S56D, W78V, T83R, V89L, N93R)) VHH: EVQLVESGGGVVQPGGSLRLSCAASGPVFNINRMAWYRQAPGKQRELVAYVTPTGDISYTDSVKGRFTISRDGSKRVSLQMNSLRPEDTALYYCRALLQPDSYSNTRTYWGQGTLVTVSS"
  measured: "100%"
- binder: "F010301848 (VHH, also called F0103387G04(L11V, A12V, K33R, R39Q, S50Y, S56D, T60A, G73N, W78V, S79Y, T83R, V89L, N93R)) VHH: EVQLVESGGGVVQPGGSLRLSCAASGPVFNINRMAWYRQAPGKQRELVAYVTPTGDISYADSVKGRFTISRDNSKRVYLQMNSLRPEDTALYYCRALLQPDSYSNTRTYWGQGTLVTVSS"
  measured: "100%"
- binder: "F010301865 (VHH, also called F0103387G04(L11V, A12V, K33R, R39Q, S50Y, S56D, T60A, W78V, S79Y, T83R, V89L, N93R)) VHH: EVQLVESGGGVVQPGGSLRLSCAASGPVFNINRMAWYRQAPGKQRELVAYVTPTGDISYADSVKGRFTISRDGSKRVYLQMNSLRPEDTALYYCRALLQPDSYSNTRTYWGQGTLVTVSA"
  measured: "100%"
- binder: "F010302372 (VHH, also called F0103387G04(L11V, A12V, K33R, R39Q, S50Y, S56D, T60A, G73R, W78V, S79Y, T83R, V89L, N93R, S100V, N100cI)) VHH: EVQLVESGGGVVQPGGSLRLSCAASGPVFNINRMAWYRQAPGKQRELVAYVTPTGDISYADSVKGRFTISRDRSKRVYLQMNSLRPEDTALYYCRALLQPDVYSITRTYWGQGTLVTVSS"
  measured: "100%"
